Kindly state composite z-score for each of the entries shown.
Test method notes: binders of probe aFGF10 on microarray, primary screen, stem cell growth factor project, biochemical, small-molecule microarray, fluorescence 635/667 (AID 1071);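 further: score merges 667 nm spot intensity and signal to noise from triplicate slides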
Assay setup: higher = more signal
Give bare numbers.

CO[C@H]1O[C@H](CO)[C@@H](OC(=O)Nc2cccc(F)c2)[C@H](OC(=O)c2cc3ccccc3[nH]2)[C@H]1OC(=O)c1cc2ccccc2[nH]1 = 0.463

State the recorded composite z-score for every item in the following list.
1. C=CCC(OC(C)=O)[C@@H]1[C@@H](N(Cc2ccc(-c3ccccc3)cc2)C(=O)Cc2ccc(OC)cc2)c2cc(OCCCO)ccc2N1C(=O)Cc1ccc(OC)cc1 (some centres undefined)
2. COCCCNC(=O)[C@]1(Cc2ccccc2CN=[N+]=[N-])N=C(c2ccc(OCCCO)cc2)O[C@@H]1c1ccccc1N=[N+]=[N-]
3. CCCC1(C(=O)OC)C=C2C(=C(C(C)C)C(=O)C2C)CN1 (centres undefined)
4. CC(C)c1ccc(NN2C(C(O)c3ccccc3)C=CC3C(=O)N(c4ccccc4)C(=O)C32)cc1 (centres undefined)
5. C=C[C@H](C)[C@@H](OC(=O)Nc1ccc(SC)cc1)c1ccc(OCCO)cc1

1: 0.479; 2: 0.425; 3: -0.397; 4: 0.885; 5: 0.0044

Provide the reported composite z-score of each entry below, same order.
1. COc1ccc([Si](C)(C)[C@@H]2[C@@H](CC(=O)N(CCO)Cc3ccccc3)O[C@]3(C(=O)N(Cc4cccc(I)c4)c4ccccc43)[C@H]2C)cc1
2. COc1cc2c(cc1OC)CN(C(=O)[C@@H]1[C@H]3C(=O)O[C@H](c4ccccc4)[C@H](c4ccccc4)N3[C@H](c3ccc(O)cc3)[C@@]13C(=O)Nc1ccc(C#CC4=CCCCC4)cc13)CC2
3. COCCOC(=O)N1C(=O)[C@@]2(c3cc(C#CCNC(N)=O)ccc31)[C@H](c1ccc(O)cc1)N1[C@H](c3ccccc3)[C@H](c3ccccc3)OC(=O)[C@H]1[C@@H]2C(=O)N1CCc2cc(OC)c(OC)cc2C1
4. C[N+](C)(C)CCCC[C@@H]1NC(=O)[C@H]2C[C@@H](C(=O)NCCCCCN)[C@@H](c3ccc(O)cc3)N2C1=O
5. CN1C2C=C(c3ccc(CO)cc3)C(C3C(=O)N(C(N)=O)C(=O)C32)C1C1CC1 (centres undefined)
6. CC[C@@H](O[Si](C#C[Si](C(C)C)(C(C)C)C(C)C)(C(C)C)C(C)C)c1cn([C@H](C)c2ccccc2)nn1
7. O=C1NC(=O)C2C1C=CC(C(O)C1CCCCC1)N2Nc1ccccn1 (centres undefined)

[0.396, 0.864, 0.67, 0.873, -0.0401, 0.663, 0.235]

Look at each compound and report its composite z-score.
1. O=C1O[C@H](c2ccccc2)[C@H](c2ccccc2)N2[C@H]1[C@@H](C(=O)N1CCN(c3ncccn3)CC1)[C@]1(C(=O)Nc3ccc(C#CC4(O)CCCCCC4)cc31)[C@H]2c1ccc(O)cc1
2. [N-]=[N+]=NCc1ccccc1[C@H]1OC(c2ccc(OCCCO)cc2)=N[C@@]1(CCS(=O)(=O)c1ccccc1)C(=O)O
3. COCCCNC(=O)[C@@]1(CCC(=O)OC(C)(C)C)N=C(c2ccc(OCCCO)cc2)O[C@H]1c1ccccc1
4. O=C1NC(=O)C2C1C=CC(C(O)C(c1ccccc1)c1ccccc1)N2Nc1ccccn1 (centres undefined)
5. CCCCCN1CC=CC23O[C@@H]4/C=C\CCCOC(=O)C4[C@H]2C(=O)N(CCCCCO)[C@@H]3C1=O (some centres undefined)
6. O=C(c1ccccc1)N1Cc2ccccc2C[C@@]2(N=C(c3ccc(OCCCO)cc3)O[C@H]2c2ccccc2)C1=O

1: 1.04; 2: 0.135; 3: 0.186; 4: 0.951; 5: -0.501; 6: 0.458

Look up composite z-score for the entries below, preserving their order.
1. COCCOC(=O)N1C(=O)[C@@]2(c3cc(C#CC4=CCCCC4)ccc31)[C@H](c1ccc(O)cc1)N1[C@H](c3ccccc3)[C@H](c3ccccc3)OC(=O)[C@H]1[C@@H]2C(=O)N1CCc2cc(OC)c(OC)cc2C1
2. COC(=O)[C@]1(Cc2ccccc2CN=[N+]=[N-])N=C(c2ccc(OCCCO)cc2)O[C@@H]1c1ccccc1N=[N+]=[N-]
3. COC(=O)[C@@]1(Cc2ccccc2)[C@H]2c3cc(C(=O)N(C)C)n(Cc4ccc(Cl)c(C(F)(F)F)c4)c3C[C@H]2CN1C(=O)c1ccccc1
4. CC(C)(C)OC(=O)CC[C@@]1(C(N)=O)N=C(c2ccc(OCCCO)cc2)O[C@@H]1c1ccccc1CN=[N+]=[N-]
5. COC(=O)C[C@H]1O[C@]2(C(=O)N(C)c3ccccc32)[C@@H](C)[C@@H]1[Si](C)(C)c1ccccc1
6. [N-]=[N+]=NCc1ccccc1[C@H]1OC(c2ccc(OCCCO)cc2)=N[C@@]1(Cc1ccccc1N=[N+]=[N-])C(=O)N1CCOCC1
7. Cc1ccc(S[C@]2(C(=O)NC(C)C)CC(=O)N(Cc3ccccc3)[C@@H]2c2ccc(CO)cc2)cc1
8. CC(C)C(=C=CC[C@H](O)c1cccc(OCCO)c1)C[C@H](O)c1ccccn1

1. 0.142
2. -0.223
3. 1.09
4. 0.712
5. 0.351
6. 0.383
7. -1
8. 0.016

Hi there! I need composite z-score for each item below, if you can.
1. COc1cc(Cc2cc3c(c(CCc4ccccc4)n2)[Si](C(C)C)(C(C)C)O[C@H]3c2ccccc2)cc(OC)c1OC
2. CCCCCN1CC=CC23O[C@@H]4/C=C\CCCOC(=O)C4[C@H]2C(=O)N(CCO)[C@@H]3C1=O (some centres undefined)

[0.169, -0.148]

====

Test method notes: PSAC antagonists in infected red cells, primary screen, cell-based, P. falciparum Indochina, OD700, 2 h (AID 1155);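 further: lysis reports solute entry through the parasite surface anion channel PSAC; channel blockers reduce lysis of infected cells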
Assay setup: P. falciparum Indochina infected erythrocytes, osmotic lysis OD700; higher = more signal, called active from +8 up or from −8 down
Result type: z-score
Give bare numbers.

Hi! Can you tell me z-score for each of these compounds?
1. CN(C)CCCC[C@@H]1NC(=O)[C@H]2C[C@@H](C(=O)NCCCCCCNC(=O)CS)[C@@H](c3cccc(OCCO)c3)N2C1=O
2. COCCOC(=O)N1C(=O)[C@@]2(c3cc(C#CCNC(N)=O)ccc31)[C@H](C(=O)Nc1nc3ccccc3s1)[C@H]1C(=O)O[C@H](c3ccccc3)[C@H](c3ccccc3)N1[C@@H]2c1ccc(O)cc1
3. CCOC(=O)C[C@H]1[C@H](OC(=O)c2ccccc2-c2ccccc2)[C@@H](NC(=O)CC(C)C)c2cc(OCCCO)ccc2N1C(=O)c1ccccc1
4. C=CCC(OC(C)=O)[C@@H]1[C@@H](N(Cc2ccc(-c3ccccc3)cc2)C(=O)Cc2ccc(OC)cc2)c2cc(OCCCO)ccc2N1C(=O)Cc1ccc(OC)cc1 (some centres undefined)

0.677
0.476
-1.7
-0.313

====

Test method notes: E. coli acrAB mutant growth effects, primary screen, E. coli filamentation inducers, strain DRC39, OD650, 24 h (AID 1178);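 further: growth measured as culture turbidity by optical density at 650 nm; test concentration not given here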
Assay setup: higher = more signal, called active from +8 up or from −8 down
Mark not satisfied for z-score values under 0.05, and satisfied for everything at or above.

Record excerpt, results attached:
COC(=O)C[C@H]1O[C@]2(C(=O)N(C)c3ccccc32)[C@@H](C)[C@@H]1[Si](C)(C)c1ccccc1 = satisfied
CCCCN1CC=CC23O[C@@H]4/C=C\CCC(C)OC(=O)C4[C@H]2C(=O)N(CCO)[C@@H]3C1=O (some centres not stated) = satisfied
C=C[C@H](C)[C@@H](OC(=O)Nc1ccc(SC)cc1)c1ccc(OCCO)cc1 = not satisfied

Quick check, z-score >= 0.05? COCCOC(=O)N1C(=O)[C@@]2(c3cc(C#CCCO)ccc31)[C@H](c1ccc(O)cc1)N1[C@H](c3ccccc3)[C@H](c3ccccc3)OC(=O)[C@H]1[C@@H]2C(=O)NC[C@H](O)c1ccccc1 satisfied

Please give the result for CN1C(=O)C2C=CC(C(O)c3ccc(I)cc3)N(N(c3ccccc3)c3ccccc3)C2C1=O (configuration not stated) too. not satisfied

Entry CCOC(=O)C[C@H]1[C@H](OC(=O)Cc2ccc3c(c2)OCO3)[C@@H](NC(=O)CC(C)C)c2cc(OCCCO)ccc2N1C(=O)c1ccc2ccccc2n1 please satisfied

====

Target or system: Torsin-1A-interacting protein 2 (Homo sapiens)
Test method notes: LULL1 binders on small-molecule microarray, primary screen, cell lysate, human LULL1 lysate, 635/667 nm fluorescence (AID 1092);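 further: probe is lysate of COS7 cells overexpressing human LULL1; score merges per-feature 667 nm fluorescence with signal-to-noise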
Assay setup: hLULL1 lysate binding, 635 nm fluorescence, higher = more signal
Please use Fulfilled whenever composite z-score is not below 1, and Not fulfilled whenever it is.

COC(=O)C(CC#Cc1ccc2c(c1)[C@]1(C(=O)N2)[C@H](c2ccccc2OCCO)N2[C@H](c3ccccc3)[C@H](c3ccccc3)OC(=O)[C@H]2[C@@H]1C(=O)N1CCN(c2ncccn2)CC1)C(=O)OC = Fulfilled
C=CC[C@H](OC(=O)Nc1ccc(SC)cc1)c1ccc(O)c(F)c1 = Fulfilled
C=CC[C@H](O)c1ccc(O)c(F)c1 = Not fulfilled

Next up:
Check if composite z-score >= 1 (inclusive). Item: COc1ccc(C(=O)Nc2ccc(CN3C(=O)[C@]4(O[C@H](CC(=O)N(CCO)Cc5ccccc5)[C@@H]([Si](C)(C)c5ccc(OC)cc5)[C@@H]4C)c4ccccc43)cc2)cc1 Fulfilled
